FYI, the data here is from BindingDB's records for doi:10.1073/pnas.88.17.7491.

Heads up, these compounds all have pKi values measured for UniProt:P21728.
Sequence (P21728 whole entry): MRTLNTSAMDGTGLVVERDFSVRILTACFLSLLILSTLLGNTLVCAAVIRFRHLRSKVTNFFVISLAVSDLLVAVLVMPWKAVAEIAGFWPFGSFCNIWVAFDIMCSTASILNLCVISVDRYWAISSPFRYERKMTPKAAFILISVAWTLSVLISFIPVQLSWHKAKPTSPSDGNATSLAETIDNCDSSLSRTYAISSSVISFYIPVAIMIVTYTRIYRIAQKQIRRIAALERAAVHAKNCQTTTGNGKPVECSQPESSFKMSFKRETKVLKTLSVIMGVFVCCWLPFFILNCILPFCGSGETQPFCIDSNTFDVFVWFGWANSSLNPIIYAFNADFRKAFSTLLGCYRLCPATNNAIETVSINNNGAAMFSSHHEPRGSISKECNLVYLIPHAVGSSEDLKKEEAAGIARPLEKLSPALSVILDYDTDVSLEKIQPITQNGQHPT
pKi field: float, defined as -log10 of concentration (mol/L).

1) O=C(O)c1ccccc1C(=O)Nc1cccc2ccccc12 [NPA,(+)] :: 5.81

Problem: Give the measured pKi of CN1CCN(C2=Nc3cc(F)ccc3Cc3ccccc32)CC1 .
Solution: 7.12
